# Assay Text: Plasma concentration in mouse at 3 mg/kg, ip measured at 0.5 hrs by LC-MS/MS analysis
# Format: ADME, organism-based
Property: concentration at 0.5 h
Quick note: unit goes after the number.

# get_value(readout='concentration at 0.5 h', item= CNc1nc(Nc2ccc(OC(F)(F)F)cc2)nc(-c2ccc(OC)cc2)n1 )
273 ng/mL

---

Record form. Attribute: microsomal CLint. Fill in for each entry.
# Assay Text: Metabolic stability in rat liver microsomes assessed as clearance by LC-MS analysis
# Format: ADME, Microsome
# Stated Conditions: read-out: CLH
One number for each entry, in µL/min/mg.

Here's what some known entries look like.
> print(dat)
                               given.smiles  result.number
1  Fc1ccc(Sc2nc(Cl)nc(Nc3ccc(OC(F)(F)F)cc3)n2)cc1             21
2  FC(F)(F)Oc1ccc(Nc2nc(Cl)nc(Sc3ccc(Cl)cc3)n2)cc1             21

Requested field: microsomal CLint. Item: CC(=O)Nc1ccc(Sc2nc(Cl)nc(Nc3ccc(OC(F)(F)F)cc3)n2)cc1
21
